System: arenavirus Tacaribe (TCRV), strain TRLV11573
Assay: microbe, parasite or virus in culture
Type: cell-based, Tacaribe virus
Details: Vero
assay-readout: EC50 (µM)
Give bare numbers, in µM.

Documented EC50 of NCC(=O)Nc1ccc(-n2nc(C(F)(F)F)cc2-c2ccc3c(ccc4ccccc43)c2)cc1 : 0.35

###

Test: in vitro
Conditions: African green monkey, CC50 (visual)
assay-readout: CC50 (µg/mL)
Give bare numbers, in µg/mL.

Lab book: CC50 of NCC(=O)Nc1ccc(-n2nc(C(F)(F)F)cc2-c2ccc3c(ccc4ccccc43)c2)cc1 noted as 2.8

###

System: Vero
Conditions: listed as Yellow Fever Virus 17D; visual
assay-readout: CC50 (visual) (µg/mL)
Numbers only, in µg/mL.

Entry under test: NCC(=O)Nc1ccc(-n2nc(C(F)(F)F)cc2-c2ccc3c(ccc4ccccc43)c2)cc1 [AR-12] . Its CC50 (visual) was 2.8
